Recorded measurements of IC50, one per entry
Test system: HT-29
Assay: Antiproliferative activity against human HT-29 cells harboring B-RAF V600E mutant after 72 hrs by SRB assay
Assay type: functional, cell-based
Conditions: HT-29, 72 h
QUANTITY: IC50 (µM)

{"COMPOUND": "O=C(N[C@H](CO)c1cccc(Cl)c1)c1ccc2[nH]nc(-c3ccncc3)c2c1", "TARGET": "HT-29", "NUMERIC_READOUT": 1.9}
{"COMPOUND": "O=C(NC(CO)c1cccc(Cl)c1)c1ccc2[nH]nc(C3CCOCC3)c2c1 (stereo not given)", "TARGET": "HT-29", "NUMERIC_READOUT": 11.5}
{"COMPOUND": "CC(NC(=O)c1ccc2[nH]nc(-c3ccncc3)c2c1)c1cccc(Cl)c1 (stereo not given)", "TARGET": "HT-29", "NUMERIC_READOUT": 0.9}
{"COMPOUND": "O=C(N[C@@H](CO)c1cccc(Cl)c1)c1ccc2[nH]nc(-c3ccncc3)c2c1", "TARGET": "HT-29", "NUMERIC_READOUT": 16.5}
{"COMPOUND": "O=C(NCc1ccccc1Cl)c1ccc2[nH]nc(-c3ccncc3)c2c1", "TARGET": "HT-29", "NUMERIC_READOUT": 2.8}
{"COMPOUND": "CC(CNC(=O)c1ccc2[nH]nc(-c3ccncc3)c2c1)Oc1ccccc1 (stereo not given)", "TARGET": "HT-29", "NUMERIC_READOUT": 6}
{"COMPOUND": "C[C@H](NC(=O)c1ccc2[nH]nc(-c3ccncc3)c2c1)c1cccc(Cl)c1", "TARGET": "HT-29", "NUMERIC_READOUT": 7.5}
{"COMPOUND": "Cc1cc(-c2n[nH]c3ccc(C(=O)NC(CO)c4cccc(Cl)c4)cc23)ccn1 (stereo not given)", "TARGET": "HT-29", "NUMERIC_READOUT": 2.4}
{"COMPOUND": "O=C(NCc1c(Cl)cccc1Cl)c1ccc2[nH]nc(-c3ccncc3)c2c1", "TARGET": "HT-29", "NUMERIC_READOUT": 8.4}
{"COMPOUND": "O=C(NC(CO)c1cccc(Cl)c1)c1ccc2[nH]nc(-c3ccncc3)c2c1 (stereo not given)", "TARGET": "HT-29", "NUMERIC_READOUT": 5.5}

---

The following compounds are listed with their measured pIC50 values.
Biological target: Mitogen-activated protein kinase 1 (Homo sapiens)
Sequence (P28482 whole entry): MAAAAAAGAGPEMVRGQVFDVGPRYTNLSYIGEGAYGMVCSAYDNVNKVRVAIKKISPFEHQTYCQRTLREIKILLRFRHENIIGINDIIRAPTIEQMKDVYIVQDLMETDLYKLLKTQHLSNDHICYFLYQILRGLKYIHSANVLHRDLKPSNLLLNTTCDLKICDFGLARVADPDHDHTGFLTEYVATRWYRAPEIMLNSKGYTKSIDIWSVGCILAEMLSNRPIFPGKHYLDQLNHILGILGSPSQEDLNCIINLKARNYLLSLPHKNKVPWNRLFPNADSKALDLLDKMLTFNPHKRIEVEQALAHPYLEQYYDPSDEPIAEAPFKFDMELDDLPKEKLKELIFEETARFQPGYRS
Assay: Inhibition of human recombinant GST-tagged ERK2 expressed in Escherichia coli using ser/thr 3 Peptide as substrate preincubated for 1 hr measured after 1 hr by Z-LYTE assay
pIC50: −log10 of the molar value.

{"COMPOUND": "CC(NC(=O)c1ccc2[nH]nc(-c3ccncc3)c2c1)c1ccccc1Cl (stereo not given)", "pIC50": 7.78}
{"COMPOUND": "Cc1cc(-c2n[nH]c3ccc(C(=O)NC(C)c4c(Cl)cncc4Cl)cc23)ccn1 (stereo not given)", "pIC50": 7.78}
{"COMPOUND": "Cc1cc(-c2n[nH]c3ccc(C(=O)NC(CO)c4cccc(Cl)c4)cc23)ccn1 (stereo not given)", "pIC50": 7.75}
{"COMPOUND": "CC(C)Nc1cc(-c2c[nH]c(C(=O)N[C@H](CO)c3ccccc3)c2)c(Cl)cn1", "pIC50": 7.80}
{"COMPOUND": "O=C(NCc1c(Cl)cncc1Cl)c1ccc2[nH]nc(-c3ccncc3)c2c1", "pIC50": 8.03}

---

Assay: AUC (0 to 24 hrs) in rat at 10 mg/kg, po
Format: ADME, organism-based
Design: time < 24 hr, dose 10 mg/kg, route oral
Details: in vivo

{"RECORD_SMILES": "C[C@@H](NC(=O)c1ccc2[nH]nc(-c3ccncc3)c2c1)c1cccc(Cl)c1", "AUC(0-t) at 24 h (µg·h/mL)": 0.056}

---

Biological target: Tyrosine-protein kinase ABL1 (Homo sapiens, UniProt P00519)
Sequence (P00519 whole entry): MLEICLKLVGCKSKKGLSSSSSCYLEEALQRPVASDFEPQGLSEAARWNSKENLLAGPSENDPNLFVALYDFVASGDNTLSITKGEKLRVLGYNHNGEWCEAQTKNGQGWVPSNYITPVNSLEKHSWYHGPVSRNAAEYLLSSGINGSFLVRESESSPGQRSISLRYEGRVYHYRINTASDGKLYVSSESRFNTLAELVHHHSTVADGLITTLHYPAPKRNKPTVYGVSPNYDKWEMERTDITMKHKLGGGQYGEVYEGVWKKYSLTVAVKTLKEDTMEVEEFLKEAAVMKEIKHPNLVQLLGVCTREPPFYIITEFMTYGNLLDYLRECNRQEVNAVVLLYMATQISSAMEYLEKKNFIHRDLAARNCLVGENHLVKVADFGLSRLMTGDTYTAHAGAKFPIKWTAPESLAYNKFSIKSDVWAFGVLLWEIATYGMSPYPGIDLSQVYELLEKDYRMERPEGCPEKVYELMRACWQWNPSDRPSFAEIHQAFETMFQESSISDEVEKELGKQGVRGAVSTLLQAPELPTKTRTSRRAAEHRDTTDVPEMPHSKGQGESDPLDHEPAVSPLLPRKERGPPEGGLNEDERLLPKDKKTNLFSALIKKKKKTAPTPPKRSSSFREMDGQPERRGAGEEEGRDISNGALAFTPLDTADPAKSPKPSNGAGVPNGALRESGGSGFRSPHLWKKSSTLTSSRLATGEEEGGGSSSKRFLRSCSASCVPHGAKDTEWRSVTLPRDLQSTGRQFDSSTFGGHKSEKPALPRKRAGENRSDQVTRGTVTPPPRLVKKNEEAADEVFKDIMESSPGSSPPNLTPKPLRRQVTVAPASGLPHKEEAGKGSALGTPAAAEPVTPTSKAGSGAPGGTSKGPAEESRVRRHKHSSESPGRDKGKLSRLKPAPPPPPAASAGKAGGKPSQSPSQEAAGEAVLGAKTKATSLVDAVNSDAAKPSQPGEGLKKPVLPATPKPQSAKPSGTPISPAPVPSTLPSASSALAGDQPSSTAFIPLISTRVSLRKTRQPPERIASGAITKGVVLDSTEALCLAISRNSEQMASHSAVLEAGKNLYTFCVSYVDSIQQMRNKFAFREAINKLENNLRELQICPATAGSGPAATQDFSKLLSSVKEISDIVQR

{"COMPOUND": "Cc1cc(-c2n[nH]c3ccc(C(=O)NC(C)c4c(Cl)cncc4Cl)cc23)ccn1 (stereo unspecified)", "TARGET": "Tyrosine-protein kinase ABL1 (Homo sapiens, UniProt P00519)", "IC50": "> 1 µM"}

---

Target: Insulin-like growth factor 1 receptor (Homo sapiens, UniProt P08069)
Sequence (P08069 31-736 limits assumed): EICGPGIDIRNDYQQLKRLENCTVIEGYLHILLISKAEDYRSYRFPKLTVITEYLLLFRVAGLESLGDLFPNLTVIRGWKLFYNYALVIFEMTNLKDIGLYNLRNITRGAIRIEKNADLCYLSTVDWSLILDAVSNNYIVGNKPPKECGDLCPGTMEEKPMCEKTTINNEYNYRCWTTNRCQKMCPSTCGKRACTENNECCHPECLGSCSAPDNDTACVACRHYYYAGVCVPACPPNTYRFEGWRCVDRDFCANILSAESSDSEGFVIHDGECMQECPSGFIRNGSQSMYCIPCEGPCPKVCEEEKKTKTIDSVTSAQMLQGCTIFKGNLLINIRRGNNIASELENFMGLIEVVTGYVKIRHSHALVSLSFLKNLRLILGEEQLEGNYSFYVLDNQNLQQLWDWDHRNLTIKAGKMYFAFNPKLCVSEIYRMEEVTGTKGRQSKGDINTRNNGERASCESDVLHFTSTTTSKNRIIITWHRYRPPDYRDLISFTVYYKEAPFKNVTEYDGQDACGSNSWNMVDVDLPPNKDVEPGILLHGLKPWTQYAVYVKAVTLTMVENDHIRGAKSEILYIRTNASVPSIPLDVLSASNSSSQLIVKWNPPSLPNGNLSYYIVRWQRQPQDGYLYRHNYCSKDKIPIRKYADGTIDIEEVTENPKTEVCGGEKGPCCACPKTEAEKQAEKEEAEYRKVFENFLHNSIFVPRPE
Sequence (P08069 741-1367 limits assumed): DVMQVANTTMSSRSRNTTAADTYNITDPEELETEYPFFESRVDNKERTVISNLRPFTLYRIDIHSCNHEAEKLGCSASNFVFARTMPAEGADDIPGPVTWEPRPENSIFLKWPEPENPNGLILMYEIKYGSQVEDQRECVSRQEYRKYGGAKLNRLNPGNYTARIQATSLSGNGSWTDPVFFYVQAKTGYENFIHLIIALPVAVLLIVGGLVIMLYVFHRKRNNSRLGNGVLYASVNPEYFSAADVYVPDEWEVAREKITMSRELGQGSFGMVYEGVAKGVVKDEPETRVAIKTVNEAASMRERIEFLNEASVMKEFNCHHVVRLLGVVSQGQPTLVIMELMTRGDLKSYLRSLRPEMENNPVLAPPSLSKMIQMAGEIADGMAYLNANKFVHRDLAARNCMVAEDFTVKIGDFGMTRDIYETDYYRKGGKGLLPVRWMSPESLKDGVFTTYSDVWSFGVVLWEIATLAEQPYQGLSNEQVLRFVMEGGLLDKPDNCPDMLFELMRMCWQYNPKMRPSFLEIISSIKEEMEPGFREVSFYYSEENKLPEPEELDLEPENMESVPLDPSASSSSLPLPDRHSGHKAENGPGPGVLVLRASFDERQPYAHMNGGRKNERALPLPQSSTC

{"MOLECULE": "Cc1cc(-c2n[nH]c3ccc(C(=O)NC(C)c4c(Cl)cncc4Cl)cc23)ccn1 (stereo unspecified)", "IC50": "> 1 µM"}

---

Examples of compounds with documented AUC(0-t) at 24 h follow.
Assay: AUC (0 to 24 hrs) in mouse at 5 mg/kg, po
Type: ADME, organism-based
Design: dose 5 mg/kg, time < 24 hr, route oral
Conditions: in vivo

{"COMPOUND": "Cc1cc(-c2n[nH]c3ccc(C(=O)NC(C)c4c(Cl)cncc4Cl)cc23)ccn1 (configuration not stated)", "AUC(0-t) at 24 h": "61 ng·h/mL"}
{"COMPOUND": "Cc1cc(-c2n[nH]c3ccc(C(=O)NC(C)c4cccc(Cl)c4)cc23)cc(C)n1 (configuration not stated)", "AUC(0-t) at 24 h": "162 ng·h/mL"}

---

This section lists IC50 readings for Ephrin type-A receptor 2 (Homo sapiens, UniProt P29317).

{"COMPOUND": "Cc1cc(-c2n[nH]c3ccc(C(=O)NC(C)c4c(Cl)cncc4Cl)cc23)ccn1 (configuration not stated)", "IC50": "> 1000 nM"}
{"COMPOUND": "CC(NC(=O)c1ccc2[nH]nc(-c3ccncc3)c2c1)c1cccc(Cl)c1 (configuration not stated)", "IC50": "> 1000 nM"}

---

Target: ALK tyrosine kinase receptor (Homo sapiens, UniProt Q9UM73)
Sequence (Q9UM73 whole entry): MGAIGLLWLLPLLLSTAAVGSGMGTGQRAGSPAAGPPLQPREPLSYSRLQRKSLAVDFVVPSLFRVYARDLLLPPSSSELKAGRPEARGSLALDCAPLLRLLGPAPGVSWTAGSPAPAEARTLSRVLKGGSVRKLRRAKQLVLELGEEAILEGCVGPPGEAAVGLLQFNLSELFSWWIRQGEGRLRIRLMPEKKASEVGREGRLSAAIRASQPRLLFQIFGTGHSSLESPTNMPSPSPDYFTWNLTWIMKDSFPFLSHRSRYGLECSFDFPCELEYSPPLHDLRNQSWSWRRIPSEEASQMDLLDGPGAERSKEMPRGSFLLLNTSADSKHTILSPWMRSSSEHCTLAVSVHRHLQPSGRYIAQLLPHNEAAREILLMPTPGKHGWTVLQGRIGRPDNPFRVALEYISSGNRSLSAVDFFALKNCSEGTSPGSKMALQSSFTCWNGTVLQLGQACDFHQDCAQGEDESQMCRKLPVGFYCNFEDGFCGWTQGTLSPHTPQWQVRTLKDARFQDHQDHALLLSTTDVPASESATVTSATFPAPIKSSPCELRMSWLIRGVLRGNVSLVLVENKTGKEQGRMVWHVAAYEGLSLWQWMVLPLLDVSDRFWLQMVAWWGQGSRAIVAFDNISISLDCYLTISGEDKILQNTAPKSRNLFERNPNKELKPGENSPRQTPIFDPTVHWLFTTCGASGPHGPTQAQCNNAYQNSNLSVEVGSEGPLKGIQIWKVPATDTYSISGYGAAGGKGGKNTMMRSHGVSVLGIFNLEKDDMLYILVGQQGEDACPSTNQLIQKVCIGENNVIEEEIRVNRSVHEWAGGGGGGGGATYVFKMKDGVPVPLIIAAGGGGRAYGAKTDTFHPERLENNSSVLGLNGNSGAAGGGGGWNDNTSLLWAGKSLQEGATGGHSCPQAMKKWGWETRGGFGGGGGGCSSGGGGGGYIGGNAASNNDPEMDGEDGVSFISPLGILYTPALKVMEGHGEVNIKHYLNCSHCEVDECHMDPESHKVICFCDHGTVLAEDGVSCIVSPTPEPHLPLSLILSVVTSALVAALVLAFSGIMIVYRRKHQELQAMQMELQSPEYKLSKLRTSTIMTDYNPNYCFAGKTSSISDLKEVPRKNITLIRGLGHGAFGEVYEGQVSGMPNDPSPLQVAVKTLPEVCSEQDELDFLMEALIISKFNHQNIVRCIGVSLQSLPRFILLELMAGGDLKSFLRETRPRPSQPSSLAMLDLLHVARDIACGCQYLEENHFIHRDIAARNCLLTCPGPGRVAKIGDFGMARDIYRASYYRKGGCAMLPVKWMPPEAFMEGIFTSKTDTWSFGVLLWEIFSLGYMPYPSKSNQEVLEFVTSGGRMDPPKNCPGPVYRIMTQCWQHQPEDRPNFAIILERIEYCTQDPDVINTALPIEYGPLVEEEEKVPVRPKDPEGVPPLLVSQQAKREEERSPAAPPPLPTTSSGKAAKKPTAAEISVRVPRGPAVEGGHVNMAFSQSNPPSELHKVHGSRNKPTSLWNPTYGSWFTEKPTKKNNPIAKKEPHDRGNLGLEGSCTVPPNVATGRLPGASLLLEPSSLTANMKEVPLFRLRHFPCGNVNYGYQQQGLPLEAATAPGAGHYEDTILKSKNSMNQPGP
QUANTITY: IC50

{"MOLECULE": "Cc1cc(-c2n[nH]c3ccc(C(=O)NC(C)c4c(Cl)cncc4Cl)cc23)ccn1 (stereo unspecified)", "RESULT": "> 1000 nM"}

---

System: HT-29
Assay: Antiproliferative activity against human HT-29 cells harboring B-RAF V600E mutant after 72 hrs by SRB assay
Assay type: functional, cell-based
Settings: HT-29, 72 h
The label is label 1 for IC50 below 4 µM and label 0 for IC50 equal to or exceeding 4 µM.

{"MOLECULE": "O=C(NC(CO)c1cccc(Cl)c1)c1ccc2[nH]nc(-c3ccc(O)c(F)c3)c2c1 (stereo not given)", "CATEGORY": "label 1"}
{"MOLECULE": "Cc1cc(-c2n[nH]c3ccc(C(=O)NC(C)c4cccc(Cl)c4)cc23)cc(C)n1 (stereo not given)", "CATEGORY": "label 1"}
{"MOLECULE": "O=C(NCc1ccc(Cl)c(F)c1Cl)c1ccc2[nH]nc(-c3ccncc3)c2c1", "CATEGORY": "label 1"}
{"MOLECULE": "CC(CNC(=O)c1ccc2[nH]nc(-c3ccncc3)c2c1)OCc1ccccc1 (stereo not given)", "CATEGORY": "label 1"}
{"MOLECULE": "O=C(NCCNc1ccccc1)c1ccc2[nH]nc(-c3ccncc3)c2c1", "CATEGORY": "label 0"}
{"MOLECULE": "O=C(NC(CO)c1cccc(Cl)c1)c1ccc2[nH]nc(-c3ccccc3)c2c1 (stereo not given)", "CATEGORY": "label 0"}
{"MOLECULE": "O=C(NCCCc1ccccc1)c1ccc2[nH]nc(-c3ccncc3)c2c1", "CATEGORY": "label 0"}
{"MOLECULE": "Cc1cc(-c2n[nH]c3ccc(C(=O)NC(C)c4c(Cl)cnc(Cl)c4Cl)cc23)ccn1 (stereo not given)", "CATEGORY": "label 1"}
{"MOLECULE": "O=C(NCc1ccccc1)c1ccc2[nH]nc(-c3ccncc3)c2c1", "CATEGORY": "label 0"}
{"MOLECULE": "C[C@@H](NC(=O)c1ccc2[nH]nc(-c3ccncc3)c2c1)c1cccc(Cl)c1", "CATEGORY": "label 1"}
